Reference source for all entries: the supplement of paper PMC9170038

system: MS2 coat protein; assay: apparent KD of MS2 coat protein; designed switch direction (-1 OFF switch, 1 ON switch): -1; higher = weaker reporter binding; details: input ligand: FMN 200 uM
Heads up, the class ranges for apparent KD of MS2 coat protein are class A = under 30 nM, class B = from 30 nM up to 90 nM, class C = 90 nM and over

INPUT SEQUENCE	CATEGORY
UAUUAAGCAAGCAGAUCCCACAUGAGGAUCACCCAUGUGCUCGUCUUAUAAGGUACUGUGACGAGAGUCACGGUACC [Mat - Sensor, turn-off var - Eli Mod - D69] (Eterna round: R97, puzzle: Sensor, turn-off variant 1)	class C

Class label required: UCUACGUCAGGAUAUACAAGCGGUGCUCUGAUGCUGUCCAGACAUGAGGAUCACCCAUGUAGAAGGGACGACAA [Eternabot (L1) Solution 68] (Eterna round: R97, puzzle: Exclusion 2)
class B

Class label required: ACAUGAGGAUCACCCAUGUGAAAAGAAUGGCUGACACAGAGAUAGGAUAUGCGUGCAUAUCUAACGCAGAAGGGUCAUGACUGG [Deportation 81 - Jieux - Exclusion NG 3] (Eterna round: R96, puzzle: Exclusion NG 3)
class A
